Data provenance is patent US10266526B2.

molecular target: SMYD3 (Homo sapiens (Human), UniProt Q9H7B4); test: SMYD3 biochemical assay (SMYD3 enzyme assay on MEKK2 protein substrate, 3H-SAM scintillation proximity assay); details: read-out: SMYD3 Biochem IC50
Sequence (Q9H7B4 whole entry): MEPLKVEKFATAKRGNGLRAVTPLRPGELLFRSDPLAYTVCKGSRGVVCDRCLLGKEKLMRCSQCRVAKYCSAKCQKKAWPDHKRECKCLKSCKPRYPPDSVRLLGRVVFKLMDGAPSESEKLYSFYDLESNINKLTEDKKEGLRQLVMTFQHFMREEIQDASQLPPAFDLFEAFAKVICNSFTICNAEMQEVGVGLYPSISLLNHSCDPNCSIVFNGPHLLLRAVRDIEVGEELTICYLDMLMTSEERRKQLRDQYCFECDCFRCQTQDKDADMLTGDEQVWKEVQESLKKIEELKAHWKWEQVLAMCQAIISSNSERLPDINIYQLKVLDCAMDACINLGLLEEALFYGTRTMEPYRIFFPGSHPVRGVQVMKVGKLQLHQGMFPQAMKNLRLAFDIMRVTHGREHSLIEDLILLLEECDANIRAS
IC50 reference

Solved cases below.
compound: CC(NC(=O)c1cc(O)nc2ccccc12)C1CCN(C(=O)[C@H](C)N)CC1 (stereo partly drawn) [compound 199]
experimental_readout: IC50
observed_value: > 100 µM
//
compound: N[C@H]1CC[C@H](NC(=O)c2ncccc2O)CC1 [compound 480]
experimental_readout: IC50
observed_value: > 100 µM
//
compound: N[C@H]1CC[C@H](NC(=O)c2cccc3c2CC(=O)N3)CC1 [compound 400]
experimental_readout: IC50
observed_value: > 100 µM

Task: State the recorded IC50 for this entry: COc1cccc(C(=O)NC(C)C2CCN(C(=O)[C@H](C)N)CC2)n1 (stereo partly drawn) [compound 301]
Output: > 100 µM

Task: Another: CC(NC(=O)[C@@H]1C[C@H](F)CN1)C1CCN(C(=O)[C@H](C)N)CC1 (stereo partly drawn) [compound 305]
Output: 55.9 µM

Task: Another: N[C@H]1CC[C@H](NC(=O)c2cncc(O)c2)CC1 [compound 515]
Output: > 50 µM

Task: Another: Cn1ccc(C(=O)N[C@H]2CC[C@H](NC(=O)CCN)CC2)n1 [compound 349]
Output: > 100 µM

Task: Another: CC(NC(=O)c1ccc(N)nc1)C1CCN(C(=O)[C@H](C)N)CC1 (stereo partly drawn) [compound 387]
Output: > 100 µM

Task: Another: NCCC(=O)N[C@H]1CC[C@H](NC(=O)c2noc(C3CC3)n2)CC1 [compound 485]
Output: 12.9 µM

----------
Target: UniProtKB Q9H7B4
Assay: SMYD3 biochemical assay (SMYD3 enzyme assay on MEKK2 protein substrate, 3H-SAM scintillation proximity assay)
Settings: read-out: SMYD3 Biochem IC50
Description: S-adenosylmethionine (SAM), S-adenosylhomocysteine (SAH), Tris, Tween20, dimethylsulfoxide (DMSO), bovine skin gelatin (BSG), and Tris(2-carboxyethyl)phosphine hydrochloride solution (TCEP) were purchased from Sigma-Aldrich at the highest level of purity possible. ^3H-SAM was purchase from American Radiolabeled Chemicals with a specific activity of 80 Ci/mmol. 384-well opaque white OptiPlates and SPA beads (Perkin Elmer, catalog # RPNQ0013) were purchased from PerkinElmer. […]
IC50 reference

Solved cases below.
molecule: N[C@H]1CC[C@H](NC(=O)c2nccc3ccccc23)CC1
IC50: > 100 µM

molecule: CC(NC(=O)c1nccnc1N)C1CCN(C(=O)[C@H](C)N)CC1 (stereo partly drawn)
IC50: > 100 µM

molecule: Cc1ccncc1C(=O)N[C@H]1CC[C@H](NC(=O)CCN)CC1
IC50: > 100 µM

molecule: CC(NC(=O)c1ccc(N2CCCC2)cc1)C1CCN(C(=O)[C@H](C)N)CC1 (stereo partly drawn)
IC50: 29.2 µM

molecule: CC(NC(=O)c1cc[n+]([O-])cc1)C1CCN(C(=O)[C@H](C)N)CC1 (stereo partly drawn)
IC50: > 100 µM

molecule: NCCC(=O)N[C@H]1CC[C@H](NC(=O)c2ccc3nonc3c2)CC1
IC50: > 100 µM

molecule: NCCC(=O)NC1CCC(NC(=O)c2ccccn2)CC1 (stereo not drawn)
IC50: 44.2 µM

molecule: CN(C)C1CCN(S(=O)(=O)N2[C@@H]3CC[C@H]2C[C@@H](NC(=O)c2cc4c(cc2Cl)NC(=O)C4)C3)CC1
IC50: 0.00346 µM

Task: State the recorded IC50 for this entry: CC(NC(=O)c1nc2ccccc2[nH]1)C1CCN(C(=O)[C@H](C)N)CC1 (stereo partly drawn)
Output: 72.9 µM

Task: Another: N[C@H]1CC[C@H](NC(=O)c2ccc(O)nn2)CC1
Output: > 100 µM

Task: Another: NCCC(=O)N[C@H]1CC[C@H](NC(=O)Cc2cncnc2)CC1
Output: > 100 µM
